# target.under.test: Mouse GCGR (mouse, UniProt Q61606 27-485)
# Sequence (Q61606 27-485): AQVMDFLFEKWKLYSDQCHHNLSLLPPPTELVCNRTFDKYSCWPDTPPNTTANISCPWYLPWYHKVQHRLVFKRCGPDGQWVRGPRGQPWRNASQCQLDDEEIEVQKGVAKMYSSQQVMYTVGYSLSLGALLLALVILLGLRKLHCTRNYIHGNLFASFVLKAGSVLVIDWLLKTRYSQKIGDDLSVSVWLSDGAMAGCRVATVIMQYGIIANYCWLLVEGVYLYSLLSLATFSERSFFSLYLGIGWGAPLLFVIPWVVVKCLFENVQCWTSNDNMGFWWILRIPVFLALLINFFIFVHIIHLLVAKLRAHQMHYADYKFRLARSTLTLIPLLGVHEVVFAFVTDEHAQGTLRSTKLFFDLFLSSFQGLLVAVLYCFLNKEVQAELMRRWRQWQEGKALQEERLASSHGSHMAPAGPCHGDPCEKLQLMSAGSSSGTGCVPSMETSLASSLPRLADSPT
# experiment: cell-based or functional assay
value.type: IC50 (nM)
Unit nM implied. Number only.

ch1808 (antibody, human IgG4 S228P, kappa, F234A L235A, V domains shown, IgG4-AA / kappa chimeric antibody) VH: QVQLQQSGAELARPGASVKLSCKASGDTFTTNGISWVKQRIGQGLEWIGEIYPRSGNTYYNENFKGKATLTADKSSTTAYMELRRLTSEDSAVYFCARSITSVIGADYFDYWGQGTTLTVSS VL: DIQMTQTTSSLSASLGDRVTISCRASQDISNYLNWYQKKPDGTVKLLIYYSSTLHSGVPSRFSGSGSGTDYSLTISNLEQEDIATYFCQQGNTFPWTFGGGTKLEIKR | 26.6
ch1822 (antibody, human IgG4 S228P, kappa, F234A L235A, V domains shown, IgG4-AA / kappa chimeric antibody) VH: EVRLVESGGDFVQPGRSVKLSCAASGFTFSNYYMAWVRQAPTKGLEWVGSISTGGVNTYYRDSVKGRFTISRDNAESTLYLQMDSLRSEETATYYCARHTTPDYHYGIYFAMDAWGQGTSVTVSS VL: QVTLTQPKSVSGSLRSTITIPCERSSGDIGESYVNWYQQHLGRPPINVIYADDQRPSEVSDRFSGSIDSSSNSASLTITNLQVDDEADYFCQSYDSSIDIFFGGGTKLTVLR | 16
ch1805 (antibody, human IgG4 S228P, kappa, F234A L235A, V domains shown, IgG4-AA / kappa chimeric antibody; also called chimeric antibody of clone 1805) VH: EVQLQQSGPELVKPGASVKIPCKTSGYTFTDYNMDWVKQSHGRSLEWIGSIDPDNGGTIYNQKFKGKATLTVDKSSSTAYMELRSLTSEDTAVYYCTRDYYGSSSWFAYWGQGTLVTVSA VL: DVVMTQSPATLSVTPGDRVSLSCRASQSISDYLHWYQQKSHESPRLLIKYASQSISGIPSRFSGSGSGSDFTLSINSVEPEDVGVYYCQNGHSFPYTFGGGTKLEIKR | 18

Attention now shifts to the item below.
**Q:** IC50 lookup needed for ch1803 (antibody, human IgG4 S228P, kappa, F234A L235A, V domains shown, IgG4-AA / kappa chimeric antibody) VH: QFQLHQSGAELVKPGASVKLSCKATGYTFTDYWIEWVKQRPGHGLEWIGEILPGSTYTNYNEKFKGRATFTAEPSSSSAYMQLSGLTTEDSAIYYCSRGLSTLMAVDYFDYWGQGTTLTVSS VL: DIQMTQTTSSLSASLGDRVTINCRASQDISNYLNWYQQKPDGTVKLLIYYSSTLHSGVPSRFSGSGSGTDYSLTISHLEQEDIATYFCQQTNIFPWTFGGGTKLEIRT , thanks.
**A:** 24.7

Ref: patent US20220153853A1
